System: MALME-3M melanoma
Assay: NCI-60 one-dose screen, 48 h (100 = growth as untreated, 0 = no growth, -100 = all killed)
Conditions: 10 µM unless noted
This is part of a sample that, as a whole, favours compounds with a hit. Of some 83,000 tested, about 20% had one in any assay.

>  <COMPOUND_SMILES>
CC(=O)[C@@H]1CC[C@]2(C(N)=O)CC[C@]3(C)[C@H](CC[C@@H]4[C@@]5(C)CCC(=O)C(C)(C)[C@@H]5CC[C@]43C)[C@@H]12

>  <DISPLAY_UNIT>
%

>  <growth>
112

$$$$
>  <COMPOUND_SMILES>
C#CCn1cc(C=C2C(=O)NC(=S)NC2=O)c2cc(Cl)ccc21

>  <DISPLAY_UNIT>
%

>  <growth>
43.5

$$$$
>  <COMPOUND_SMILES>
O=C1c2ccccc2C(=O)c2c(NCCN=Cc3ccccc3O)cccc21

>  <DISPLAY_UNIT>
%

>  <growth>
80.2

$$$$
>  <COMPOUND_SMILES>
O=C(Nc1cccc(Cl)c1)Oc1c(Br)c(Br)c(Br)c(Br)c1Br

>  <DISPLAY_UNIT>
%

>  <growth>
90.7

$$$$

* * *

The entries below are paired with their reported growth.
Test system: CAKI-1 renal
Experiment: NCI-60 one-dose screen, 48 h (100 = growth as untreated, 0 = no growth, -100 = all killed)
Conditions: 10 µM unless noted
This is part of a sample that, as a whole, favours compounds with a hit. Of some 83,000 tested, about 20% had one in any assay.
PROPERTY_MEASURED: growth (%)

>  <COMPOUND_SMILES>
O=S(=O)(c1ccc(N/N=C\c2ccccc2)cc1)c1ccc(N/N=C/c2ccccc2)cc1

>  <VALUE_OBSERVED>
67.7

$$$$
>  <COMPOUND_SMILES>
O=C(Nc1ccc2cc3ccc(NC(=O)N4CCCCCC4)cc3nc2c1)N1CCCCCC1

>  <VALUE_OBSERVED>
-64.7

$$$$
>  <COMPOUND_SMILES>
NC(=O)C1(N2CCCCC2)CCN(CCCC(=O)c2ccc(F)cc2)CC1

>  <VALUE_OBSERVED>
91.7

$$$$
>  <COMPOUND_SMILES>
Nc1nc(N)nc(NCc2ccccc2)n1

>  <VALUE_OBSERVED>
99.7

$$$$

* * *

Tested on: NCI-H522 lung
Test: NCI-60 one-dose screen, 48 h
Conditions: 10 µM unless noted
The panel holds about 83,000 compounds, 20% with a hit somewhere; the sample as a whole holds those more often. Active and inactive are the calls of the source. How the source made its calls: active means growth percent below 10; inactive means the rest.
Classes used: active, inactive

>  <COMPOUND>
CC(=O)N1c2ccccc2NC2=C(C(=O)N(Cc3ccccc3)C2(C)C)C1c1ccco1 (configuration not stated)

>  <LABEL>
inactive

$$$$
>  <COMPOUND>
CC(=O)OCCCCCNc1ccccc1

>  <LABEL>
inactive

$$$$
>  <COMPOUND>
O=S(=O)(NCCCNc1nccc(-c2c(-c3cccc(O)c3)nc3occn23)n1)c1ccc(Br)cc1

>  <LABEL>
inactive

$$$$
>  <COMPOUND>
OC(c1ccccc1)c1ccccn1 (configuration not stated)

>  <LABEL>
inactive

$$$$
>  <COMPOUND>
COc1ccc(-c2c[nH]c(C(=O)O)c2-c2cc(OC)c3c(c2OC)OCO3)cc1

>  <LABEL>
inactive

$$$$
>  <COMPOUND>
COC(=O)Nc1nc2ccc(C(=O)c3cccc(I)c3)cc2[nH]1

>  <LABEL>
active

$$$$
>  <COMPOUND>
O=C(Nc1cccc(Cl)c1)Oc1c(Br)c(Br)c(Br)c(Br)c1Br

>  <LABEL>
inactive

$$$$
>  <COMPOUND>
C#Cc1cccc(NC(=O)Nc2cccc(N=C=S)c2)c1

>  <LABEL>
inactive

$$$$
>  <COMPOUND>
CCOC(=O)C1CC(=O)c2cc(OC)c(OC)cc2C1 (configuration not stated)

>  <LABEL>
inactive

$$$$
>  <COMPOUND>
Nc1c(Cl)cc([N+](=O)[O-])cc1Br

>  <LABEL>
inactive

$$$$
>  <COMPOUND>
O=C(CN1CCOCC1)Nc1ccc2ncnc(Nc3ccc(Oc4cccc(C(F)(F)F)c4)c(Cl)c3)c2c1

>  <LABEL>
inactive

$$$$
>  <COMPOUND>
COc1ccncc1C#Cc1cncc(C(=O)Nc2ccc(CN3CCN(C)CC3)c(C(F)(F)F)c2)c1

>  <LABEL>
inactive

$$$$
>  <COMPOUND>
CC1CCN(C(=O)OCc2nc3nc(Cl)nc(N4CCOCC4)c3[nH]2)CC1

>  <LABEL>
active

$$$$
>  <COMPOUND>
Cc1ccc(/C=C/C(=O)c2ccc(N)cc2)c(C)c1

>  <LABEL>
active

$$$$
>  <COMPOUND>
c1ccc(-c2nn(-c3ccccc3)[n+](-c3cccc4ccccc34)n2)cc1

>  <LABEL>
active

$$$$
>  <COMPOUND>
COc1ccc(C2=NN(C(C)=O)C(c3cn(Cc4ccc(Cl)cc4)c4ccccc34)C2)cc1 (configuration not stated)

>  <LABEL>
inactive

$$$$
>  <COMPOUND>
COc1ccc(-c2nc3sccn3c2/C=C/C(=O)c2cc(OC)c(OC)c(OC)c2)cc1

>  <LABEL>
active

$$$$
>  <COMPOUND>
O=C(O)CNC(=O)CN1C(=O)c2ccccc2C1=O

>  <LABEL>
inactive

$$$$
>  <COMPOUND>
CCOC(=O)c1c(C)nc2c(c1N)C(=O)C(=O)N2Cc1ccc(C(F)(F)F)cc1

>  <LABEL>
inactive

$$$$
>  <COMPOUND>
O=C1Nc2cc(-c3ccncc3)ccc2/C1=C/c1ccc[nH]1

>  <LABEL>
inactive

$$$$
>  <COMPOUND>
COc1ccc(NC(=O)c2sc3nc(C)c(C(=O)CCc4cccc(OC)c4)cc3c2N)cc1

>  <LABEL>
inactive

$$$$
>  <COMPOUND>
CC(=O)c1cc2c(N)c(C(=O)Nc3cncc4ccccc34)sc2nc1C

>  <LABEL>
inactive

$$$$
>  <COMPOUND>
c1ccc(-c2nnc(Nc3ccc4c(c3)OCCO4)o2)c(NCc2ccncc2)c1

>  <LABEL>
active

$$$$
>  <COMPOUND>
COc1cc(C2CC(c3cccc(Nc4ccncc4)c3)=NN2C(C)=O)cc(OC)c1OC (configuration not stated)

>  <LABEL>
inactive

$$$$
>  <COMPOUND>
Cc1ccc(C2CC(c3cccc(Nc4ccncc4)c3)=NN2c2ccc(Cl)cc2)cc1 (configuration not stated)

>  <LABEL>
active

$$$$
>  <COMPOUND>
CCOc1ccc(/C=N/Nc2cc(C)nc3ccc(Cl)cc23)cc1

>  <LABEL>
inactive

$$$$
>  <COMPOUND>
O=c1[nH]nc(-c2ccc(Cl)cc2)cc1Cc1cccc([N+](=O)[O-])c1

>  <LABEL>
inactive

$$$$

* * *

System: HOP-62 NSCLC
Test: NCI-60 one-dose screen, 48 h
Settings: 10 µM unless noted
Compounds without any hit were thinned out: in the full panel of roughly 83,000, 20% have a hit. Active and inactive are the calls of the source. How the source made its calls: active means growth percent below 10; inactive means the rest.
Classes used: 1 = active, -1 = inactive

>  <COMPOUND_SMILES>
COc1cc2nc(-c3ccc(C(F)(F)F)cc3)cc(OCCCN3CCCCC3)c2cc1OC

>  <LABEL>
-1

$$$$
>  <COMPOUND_SMILES>
COc1cccc(/C=C2\COc3ccc(-c4ccccc4)cc3C2=O)c1

>  <LABEL>
1

$$$$
>  <COMPOUND_SMILES>
COc1cccc(CCC(=O)c2cc3c(N)c(C(=O)Nc4cccc(Cl)c4C)sc3nc2C)c1

>  <LABEL>
-1

$$$$
>  <COMPOUND_SMILES>
CCc1nc(C)cn1C(=O)OCc1nc2nc(Cl)nc(N3CCOCC3)c2[nH]1

>  <LABEL>
-1

$$$$

* * *

System: BT-549 breast
Test: NCI-60 one-dose screen, 48 h (100 = growth as untreated, 0 = no growth, -100 = all killed)
Conditions: 10 µM unless noted
Compounds without any hit were thinned out: in the full panel of roughly 83,000, 20% have a hit. Calls of active or inactive are those of the source. The calls were made as follows: active = growth percent below 10; inactive = the rest.
Listing: growth of selected molecules

>  <MOLECULE>
COc1ccc(/C=N/C2=C(C#N)C(c3ccccc3[N+](=O)[O-])c3ccc4ccccc4c3O2)cc1 (stereo not given)

>  <growth>
92.8% (inactive)

$$$$
>  <MOLECULE>
COc1cc(CNC(=O)CCCCC[P+](c2ccccc2)(c2ccccc2)c2ccccc2)c(OC)c2c1OCO2

>  <growth>
37.8% (inactive)

$$$$
>  <MOLECULE>
CN1CCN(CCCOc2ccc3ncnc(Nc4ccc(Oc5cccc(C(F)(F)F)c5)c(Cl)c4)c3c2)CC1

>  <growth>
69.9% (inactive)

$$$$
>  <MOLECULE>
O=S(=O)(NCCNc1nccc(-c2c(-c3ccc(F)c(O)c3)nc3sccn23)n1)c1ccccc1

>  <growth>
114% (inactive)

$$$$
>  <MOLECULE>
Fc1cc(C2=NNC(c3ccc[nH]3)C2)ccc1-n1ccc(C(F)(F)F)n1 (stereo not given)

>  <growth>
92.3% (inactive)

$$$$
